Cited source for all entries: patent US20060228350A1

tgt: T1, Human EphA2-Fc fusion protein (human EphA2 fused with the Fc portion of a human IgG1) (human, UniProt P29317 24-534, limits assumed)
T1 construct: also called biotinylated human EphA2-Fc; not shown: Fc portion of a human IgG1
assay.details: SPR (BIAcore 3000), EphA2-Fc coupled to CM5 chip, IgG in solution, 1:1 Langmuir fit
measured.metric: kon

Name the reported kon value associated with the binder mAb B233 (mouse anti-human EphA2 monoclonal antibody) (antibody, V domains shown, Murine hybridoma antibody; also called B233 (murine); parental mAb B233) VH: EVKLVESGGGLVQPGGSLSLSCAASGFTFTDYSMNWVRQPPGKALEWLGFIRNKANDYTTEYSASVKGRFTISRDNSQSILYLQMNALRAEDSATYYCVRYPRYHAMDSWGQGTSVTVSS VL: DIVLTQSPATLSVTPGDSVNLSCRASQSISNNLHWYQQKSHESPRLLIKYVFQSISGIPSRFSGSGSGTDFTLSINSVETEDFGMYFCQQSNSWPLTFGAGTKLELK
280000 M⁻¹ s⁻¹
